# assay notes: proliferation blockers of H69AR lung cancer cells, primary screen, cell-based, human, 86K library (AID 598);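 further: multidrug resistant small cell line overexpressing MRP-1 efflux transporter; 100% = mean luminescence of untreated control wells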
# experimental context: H69AR lung tumor viability, ATP luminescence, 72 h; at 10 µM; active compounds read low
Among all 85,000 compounds or so, about 5,100 (6%) were called active. The full list was thinned out, with actives kept by preference.
measurement name: viability (%)
# output: bare number, implied unit %

The following compounds have reported results that may help.
Q: Retrieve viability measured for O=C(O)CSCC(=O)Nc1cccc(C(F)(F)F)c1 and print it.
Ans: 96.6

Q: Name the recorded viability of the compound listed here: CC(C)=C1SC(N2CCN(c3cccc(C)c3)CC2)=NC1=O
Ans: 96.9

Q: Let me know recorded viability for CCN1C(=O)/C(=C2\SC(N3CCCCC3)=NC2=O)c2ccccc21 , thanks.
Ans: 67.4

Q: Quick one: give measured viability for CC[C@]1(O)CC2CN(CCc3c([nH]c4ccccc34)[C@@](C(=O)OC)(c3cc4c(cc3OC)N(C=O)[C@H]3[C@@](O)(C(=O)OC)[C@H](OC(C)=O)[C@]5(CC)C=CCN6CC[C@]43[C@@H]65)C2)C1 (some centres not stated)
Ans: 31.9

Q: Return viability for the following compound: Cc1noc(C)c1S(=O)(=O)N(CC(=O)Nc1ccc2c(c1)OCCO2)c1ccc(C(C)C)cc1
Ans: 56.8

Q: Consider the compound CCC(=O)NCCc1nc2ccccc2n1CC and give its recorded viability.
Ans: 95.2

More entries:
Q: Given COC(=O)CNC(=O)c1ccccc1F , respond with its viability.
Ans: 85.2

Q: Note viability for the compound shown: CCn1nc(C)c(NC(=O)/C=C/c2ccc(OC)c(COc3ccc(Br)cc3)c2)c1C
Ans: 28.8

Q: Note down viability recorded for Cc1ccc(C(C(=O)NC2CCCC2)N(Cc2ccco2)C(=O)CCC(=O)Nc2ccccn2)cc1 (configuration not stated)
Ans: 69.7

Q: Given the compound O=C(c1cccc(N2CCCC2=O)c1)N1CCOCC1 , write its reported viability.
Ans: 110
